- measurement_target: α-1a adrenoreceptor (Bos taurus, UniProt P18130)
- Sequence (P18130 1-466): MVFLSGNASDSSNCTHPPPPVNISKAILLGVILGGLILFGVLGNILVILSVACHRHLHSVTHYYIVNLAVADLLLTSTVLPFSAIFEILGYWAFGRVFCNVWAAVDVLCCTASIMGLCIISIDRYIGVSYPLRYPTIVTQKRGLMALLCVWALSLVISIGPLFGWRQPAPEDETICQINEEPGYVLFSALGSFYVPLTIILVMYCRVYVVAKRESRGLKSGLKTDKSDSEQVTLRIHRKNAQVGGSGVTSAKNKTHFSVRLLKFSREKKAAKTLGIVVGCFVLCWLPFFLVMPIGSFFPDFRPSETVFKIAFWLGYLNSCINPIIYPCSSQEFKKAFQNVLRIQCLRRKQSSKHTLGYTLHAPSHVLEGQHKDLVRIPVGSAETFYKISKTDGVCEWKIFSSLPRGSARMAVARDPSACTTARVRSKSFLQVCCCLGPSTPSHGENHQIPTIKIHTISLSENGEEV
- test_details: biochemical
- Type: binding, bovine
- measurement_context: [3H]-prazosin radioligand; cloned receptor in LTK cell membranes; read-out: Radioligand Binding (Ki, nM) 1a (Bovine)
Counter-ions that a name gives are not always drawn.
Consider the following molecules; for each one, report its log10 Ki.
Plainly stated, the numbers are log10 of Ki given in nM.

Input: Which measured log10 Ki belongs to COc1cc2[nH]c(=O)n(CCCN3CC[C@H]4c5c(OC)cccc5OC[C@@H]4C3)c(=O)c2cc1OC (racemic) [Example 83, hydrochloride] , tested on α-1a adrenoreceptor (Bos taurus, UniProt P18130)?
Output: -0.66

Input: Which measured log10 Ki belongs to COc1cc(O)cc2c1[C@@H]1CN(CCCCn3c(=O)[nH]c4c(sc5ncc(-c6ccccc6)nc54)c3=O)C[C@@H]1CO2 (relative stereo) [Example 104] , tested on α-1a adrenoreceptor (Bos taurus, UniProt P18130)?
Output: -0.37

Input: Which measured log10 Ki belongs to COc1cccc2c1[C@@H]1CN(CCCCn3c(=O)[nH]c4c(sc5ccnc(Cl)c54)c3=O)C[C@@H]1CO2 [Example 48, hydrochloride] , tested on α-1a adrenoreceptor (Bos taurus, UniProt P18130)?
Output: -1.32

Input: Which measured log10 Ki belongs to COc1cccc2c1[C@@H]1CN(CCCCn3c(=O)[nH]c4c(sc5ncccc54)c3=O)C[C@@H]1CO2 [Example 34, hydrochloride] , tested on α-1a adrenoreceptor (Bos taurus, UniProt P18130)?
Output: -1.10

Input: Which measured log10 Ki belongs to COc1ccc2sc3c(=O)n(CCCCN4C[C@@H]5COc6cccc(OC)c6[C@H]5C4)c(=O)[nH]c3c2n1 [Example 7, hydrochloride] , tested on α-1a adrenoreceptor (Bos taurus, UniProt P18130)?
Output: -0.67

Input: Which measured log10 Ki belongs to COc1cc2nc(N3CCN(C(=O)C4CCCO4)CC3)nc(N)c2cc1OC (stereo not drawn) [Terazosin, terazosin, reference compound] , tested on α-1a adrenoreceptor (Bos taurus, UniProt P18130)?
Output: 0.52

* * *

- measurement_target: α-1A adrenoreceptor (Rattus norvegicus)
- Sequence (P43140 whole entry): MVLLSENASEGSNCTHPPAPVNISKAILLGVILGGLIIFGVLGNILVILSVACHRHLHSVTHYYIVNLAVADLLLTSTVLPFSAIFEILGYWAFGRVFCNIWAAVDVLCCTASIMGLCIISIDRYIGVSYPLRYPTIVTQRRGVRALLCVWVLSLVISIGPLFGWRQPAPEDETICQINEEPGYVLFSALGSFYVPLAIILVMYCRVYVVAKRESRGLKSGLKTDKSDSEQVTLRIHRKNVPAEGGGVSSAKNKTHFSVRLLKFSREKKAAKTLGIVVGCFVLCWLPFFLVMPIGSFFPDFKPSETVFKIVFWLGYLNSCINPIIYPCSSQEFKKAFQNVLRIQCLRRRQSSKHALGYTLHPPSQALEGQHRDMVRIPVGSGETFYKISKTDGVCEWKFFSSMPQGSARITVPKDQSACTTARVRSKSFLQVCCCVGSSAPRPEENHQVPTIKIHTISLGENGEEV
- test_details: cell-based
- measurement_context: phenylephrine-induced contraction; Schild plot; read-out: In Vitro Characterization (pA2) Rat Vas (converted)
- From the text: Functional assays indicative of pharmacologically defined α-1 adrenoreceptors were used to further characterize compounds. Inhibition of phenylephrine (PE)-induced contraction of canine prostate smooth muscle can be correlated with α-1A adrenoreceptor activation. […] For each of these models, agonist dose response curves were repeated against increasing concentrations of test agent to derive a Schild plot [log ([…]) against log (molarity of test agent)] to determine the pA2.
Counter-ions that a name gives are not always drawn.
measurement_kind: log10 of Kb (log10 of the value in nM)
Plainly stated, the numbers are log10 of Kb given in nM.

Input: Requested read-out: log10 of Kb. Entry: COc1ccc2c(n1)sc1c(=O)n(CCCCN3C[C@H]4COc5cccc(OC)c5[C@@H]4C3)c(=O)[nH]c12 [Example 46, hydrochloride]
Output: -0.79

Input: Requested read-out: log10 of Kb. Entry: COc1cccc2c1[C@@H]1CN(CCCCn3c(=O)[nH]c4c(sc5nc(-c6ccccc6)cnc54)c3=O)C[C@@H]1CO2 [Example 40, hydrochloride]
Output: 0.48

Input: Requested read-out: log10 of Kb. Entry: COc1cnc2sc3c(=O)n(CCCCN4C[C@@H]5COc6cccc(OC)c6[C@@H]5C4)c(=O)[nH]c3c2n1 [Example 31, hydrochloride]
Output: -0.64

Input: Requested read-out: log10 of Kb. Entry: COc1cccc2c1[C@@H]1CN(CCCCn3c(=O)[nH]c4c(sc5ccc(Cl)nc54)c3=O)C[C@H]1CO2 [Example 25, dihydrochloride]
Output: -0.92

Input: Requested read-out: log10 of Kb. Entry: O=c1[nH]c2c(sc3cccnc32)c(=O)n1CCCCN1C[C@@H]2COc3ccccc3[C@@H]2C1 (racemic) [Example 70, dihydrochloride]
Output: 0.80

Input: Requested read-out: log10 of Kb. Entry: COc1cccc2c1[C@@H]1CN(CCCCn3c(=O)[nH]c4c(sc5c(Cl)nccc54)c3=O)C[C@@H]1CO2
Output: -0.31

* * *

- measurement_target: UniProtKB P18130
- test_details: biochemical
- Assay type: binding, bovine
- measurement_context: [3H]-prazosin radioligand; cloned receptor in LTK cell membranes; read-out: Radioligand Binding (Ki, nM) 1a (Bovine)
Structures can show the parent of a compound that is named as a salt.
measurement_kind: Ki
Your answer should be a number followed by the unit of measure.

Input: Requested read-out: Ki. Entry: COc1cccc2c1[C@@H]1CN(CCCCn3c(=O)[nH]c4c(sc5c(Cl)ccnc54)c3=O)C[C@@H]1CO2 [Example 20, hydrochloride]
Output: 0.038 nM

Input: Requested read-out: Ki. Entry: COc1cccc2c1[C@@H]1CCN(CCCCn3c(=O)[nH]c4c(sc5cccnc54)c3=O)C[C@H]1CO2 [Example 95, dihydrochloride]
Output: 1.8 nM

Input: Requested read-out: Ki. Entry: COc1cccc2c1[C@@H]1CCN(CCCCn3c(=O)[nH]c4c(sc5nc(Cl)ccc54)c3=O)C[C@H]1CO2 [Example 102, hydrochloride]
Output: 0.113 nM

Input: Requested read-out: Ki. Entry: COc1cccc2c1[C@@H]1CCN(CCCCn3c(=O)[nH]c4c(sc5ncc(Cl)nc54)c3=O)C[C@H]1CO2 [Example 97, dihydrochloride]
Output: 0.097 nM

Input: Requested read-out: Ki. Entry: COc1cccc2c1[C@@H]1CN(CCCCn3c(=O)[nH]c4c(sc5c(Cl)nccc54)c3=O)C[C@H]1CO2
Output: 0.187 nM

Input: Requested read-out: Ki. Entry: COc1cccc2c1[C@@H]1CN(CCCCn3c(=O)[nH]c4c(sc5ccc(-c6cccnc6)nc54)c3=O)C[C@H]1CO2 [Example 58, trihydrochloride]
Output: 0.188 nM

Input: Requested read-out: Ki. Entry: COc1cccc2c1[C@H]1CN(CCCCn3c(=O)[nH]c4c(sc5cccnc54)c3=O)C[C@@H]1CO2 [Example 4, hydrochloride]
Output: 0.049 nM

Input: Requested read-out: Ki. Entry: COc1ccc(O)c2c1[C@@H]1CN(CCCCn3c(=O)[nH]c4c(sc5ncc(-c6ccccc6)nc54)c3=O)C[C@@H]1CO2
Output: 6.42 nM

Input: Requested read-out: Ki. Entry: COc1cnc2sc3c(=O)n(CCCCN4C[C@@H]5COc6cccc(OC)c6[C@@H]5C4)c(=O)[nH]c3c2n1 [Example 31, hydrochloride]
Output: 0.06 nM

Input: Requested read-out: Ki. Entry: COc1cccc2c1[C@@H]1CN(CCCCn3c(=O)[nH]c4c(sc5ccnc(OC)c54)c3=O)C[C@H]1CO2
Output: 0.007 nM

Input: Requested read-out: Ki. Entry: COc1cccc2c1[C@@H]1CN(CCCCn3c(=O)[nH]c4c(sc5nc(C)ccc54)c3=O)C[C@H]1CO2 [Example 45, hydrochloride]
Output: 0.066 nM

Input: Requested read-out: Ki. Entry: COc1cccc2c1[C@@H]1CN(CCCCn3c(=O)[nH]c4c(sc5ccccc54)c3=O)C[C@H]1CO2 [Example 21, hydrochloride]
Output: 0.018 nM

Input: Requested read-out: Ki. Entry: COc1cccc2c1[C@@H]1CN(CCCCn3c(=O)[nH]c4c(sc5ccc(-c6cccnc6)nc54)c3=O)C[C@@H]1CO2 [Example 56, dihydrochloride]
Output: 0.078 nM

* * *

Consider the following molecules; for each one, report its Kb.
- measurement_target: α-1A adrenoreceptor (Rattus norvegicus)
- test_details: cell-based
- measurement_context: phenylephrine-induced contraction; Schild plot; read-out: In Vitro Characterization (pA2) Rat Vas (converted)
Counter-ions that a name gives are not always drawn.
The answer is to be given in nM; state only the numeric part.

Input: Requested read-out: Kb. Entry: COc1cccc2c1[C@@H]1CN(CCCCn3c(=O)[nH]c4c(sc5ccc(Cl)nc54)c3=O)C[C@@H]1CO2 [Example 37, hydrochloride]
Output: 0.204

Input: Requested read-out: Kb. Entry: COc1cccc2c1[C@@H]1CN(CCCCn3c(=O)[nH]c4c(sc5ncc(-c6ccccc6)nc54)c3=O)C[C@@H]1CO2 [Example 39, hydrochloride]
Output: 0.162

Input: Requested read-out: Kb. Entry: COc1cccc2c1[C@@H]1CN(CCCCn3c(=O)[nH]c4c(sc5cc(Cl)cnc54)c3=O)C[C@@H]1CO2 [Example 38, hydrochloride]
Output: 0.282

Input: Requested read-out: Kb. Entry: COc1cccc2c1[C@@H]1CN(CCCCn3c(=O)[nH]c4c(sc5nccc(OC)c54)c3=O)C[C@@H]1CO2 [Example 36, hydrochloride]
Output: 0.537

Input: Requested read-out: Kb. Entry: COc1cccc2c1[C@@H]1CN(CCCCn3c(=O)[nH]c4c(sc5ncccc54)c3=O)C[C@H]1CO2 [Example 44, hydrochloride]
Output: 0.11

Input: Requested read-out: Kb. Entry: COc1cccc2c1[C@@H]1CN(CCCCn3c(=O)[nH]c4c(sc5ncccc54)c3=O)C[C@@H]1CO2 [Example 34, hydrochloride]
Output: 0.589
